Molecular target: USP54 (UniProt Q70EL1)
Sequence (Q70EL1 whole entry, the tested form may be a part): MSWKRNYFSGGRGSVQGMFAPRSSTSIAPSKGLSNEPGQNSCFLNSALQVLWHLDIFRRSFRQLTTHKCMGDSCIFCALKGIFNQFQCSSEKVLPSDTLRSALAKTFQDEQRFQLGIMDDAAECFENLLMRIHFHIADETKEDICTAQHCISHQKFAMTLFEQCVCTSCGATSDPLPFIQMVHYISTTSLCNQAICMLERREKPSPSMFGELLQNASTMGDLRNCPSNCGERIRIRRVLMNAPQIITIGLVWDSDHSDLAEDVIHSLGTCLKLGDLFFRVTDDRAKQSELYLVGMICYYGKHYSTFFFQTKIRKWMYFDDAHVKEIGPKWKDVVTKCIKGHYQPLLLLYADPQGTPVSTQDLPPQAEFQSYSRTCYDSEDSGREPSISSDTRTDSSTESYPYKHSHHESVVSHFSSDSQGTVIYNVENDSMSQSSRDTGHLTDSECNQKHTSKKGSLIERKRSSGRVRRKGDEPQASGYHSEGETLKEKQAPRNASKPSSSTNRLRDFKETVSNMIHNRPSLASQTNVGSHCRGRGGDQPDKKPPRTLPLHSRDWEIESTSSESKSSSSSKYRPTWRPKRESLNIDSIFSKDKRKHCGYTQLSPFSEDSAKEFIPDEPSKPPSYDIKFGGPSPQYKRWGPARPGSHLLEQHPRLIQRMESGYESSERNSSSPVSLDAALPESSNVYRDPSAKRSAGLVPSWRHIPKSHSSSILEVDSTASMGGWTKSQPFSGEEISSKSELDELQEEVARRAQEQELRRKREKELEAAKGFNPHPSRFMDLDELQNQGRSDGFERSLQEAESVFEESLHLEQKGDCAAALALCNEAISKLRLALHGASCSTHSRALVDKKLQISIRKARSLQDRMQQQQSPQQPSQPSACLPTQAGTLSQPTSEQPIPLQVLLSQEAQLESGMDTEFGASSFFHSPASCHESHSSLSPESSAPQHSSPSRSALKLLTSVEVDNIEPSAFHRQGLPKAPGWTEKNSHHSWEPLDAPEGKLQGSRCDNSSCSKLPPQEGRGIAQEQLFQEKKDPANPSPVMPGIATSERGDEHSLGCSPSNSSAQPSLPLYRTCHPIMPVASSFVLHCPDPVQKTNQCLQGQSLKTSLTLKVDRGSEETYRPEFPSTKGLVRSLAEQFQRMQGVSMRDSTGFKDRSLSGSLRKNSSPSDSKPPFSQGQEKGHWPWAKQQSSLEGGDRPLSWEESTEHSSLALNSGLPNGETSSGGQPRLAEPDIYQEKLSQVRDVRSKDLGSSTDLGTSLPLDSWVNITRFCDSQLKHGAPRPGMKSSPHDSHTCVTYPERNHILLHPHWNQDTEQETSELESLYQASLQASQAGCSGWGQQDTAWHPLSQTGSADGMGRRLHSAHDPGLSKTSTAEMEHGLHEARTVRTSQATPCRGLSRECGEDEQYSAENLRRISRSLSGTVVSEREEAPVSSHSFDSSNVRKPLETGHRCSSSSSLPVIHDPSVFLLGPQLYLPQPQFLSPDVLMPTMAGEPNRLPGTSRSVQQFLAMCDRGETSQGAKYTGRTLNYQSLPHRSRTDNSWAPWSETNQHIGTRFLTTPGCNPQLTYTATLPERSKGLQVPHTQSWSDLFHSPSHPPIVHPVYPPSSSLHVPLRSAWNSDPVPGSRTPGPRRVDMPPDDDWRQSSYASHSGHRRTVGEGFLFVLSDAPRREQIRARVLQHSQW
Assay: log2 ratio of Biotin-Ahx-Ub-VS probe labelling (fragment/DMSO); higher = less target engagement (more negative = stronger competition), active = hit call of the paper (q ≤ 0.05, log2 ratio ≤ -1)
Settings: compound concentration: 200 uM; treatment time: 3 h
Given measured log2 ratio of Biotin-Ahx-Ub-VS probe labelling, output met if it is greater than or equal to 0.02 and not met if not.

Some solved entries appear below for comparison.
{"columns": ["MOLECULE", "ASSIGNED LABEL"],
 "data": [
  ["O=C(CCl)N1CCC(C(=O)N2CCCC2)CC1", "not met"],
  ["Cc1cc(C2CCCN2C(=O)CCl)nn1C.Cl (stereo not drawn)", "not met"],
  ["Cc1cccc(C(CNC(=O)CCl)N2CCOCC2)c1.Cl (stereo not drawn)", "not met"],
  ["Cc1c(NC(=O)CCl)c(=O)n(-c2ccccc2)n1C", "not met"]
]}

Q) # bool: log2 ratio of Biotin-Ahx-Ub-VS probe labelling of CC(NC(=O)CCl)c1cnn(C2CC2)c1 (stereo not drawn) >= 0.02
A) met

Q) # bool: log2 ratio of Biotin-Ahx-Ub-VS probe labelling of Cc1ccc(-c2nnc(C)[nH]2)c(NC(=O)CCl)c1 >= 0.02
A) not met

Q) # bool: log2 ratio of Biotin-Ahx-Ub-VS probe labelling of O=C(CCl)Nc1cccc2ncccc12 >= 0.02
A) not met

Q) # bool: log2 ratio of Biotin-Ahx-Ub-VS probe labelling of COCC1C=CCCN1C(=O)CCl (stereo not drawn) >= 0.02
A) met

====

# log2 ratio of Biotin-Ahx-Ub-VS probe labelling per record follows
Target: OTUD7B (UniProt Q6GQQ9)
Sequence (whole entry): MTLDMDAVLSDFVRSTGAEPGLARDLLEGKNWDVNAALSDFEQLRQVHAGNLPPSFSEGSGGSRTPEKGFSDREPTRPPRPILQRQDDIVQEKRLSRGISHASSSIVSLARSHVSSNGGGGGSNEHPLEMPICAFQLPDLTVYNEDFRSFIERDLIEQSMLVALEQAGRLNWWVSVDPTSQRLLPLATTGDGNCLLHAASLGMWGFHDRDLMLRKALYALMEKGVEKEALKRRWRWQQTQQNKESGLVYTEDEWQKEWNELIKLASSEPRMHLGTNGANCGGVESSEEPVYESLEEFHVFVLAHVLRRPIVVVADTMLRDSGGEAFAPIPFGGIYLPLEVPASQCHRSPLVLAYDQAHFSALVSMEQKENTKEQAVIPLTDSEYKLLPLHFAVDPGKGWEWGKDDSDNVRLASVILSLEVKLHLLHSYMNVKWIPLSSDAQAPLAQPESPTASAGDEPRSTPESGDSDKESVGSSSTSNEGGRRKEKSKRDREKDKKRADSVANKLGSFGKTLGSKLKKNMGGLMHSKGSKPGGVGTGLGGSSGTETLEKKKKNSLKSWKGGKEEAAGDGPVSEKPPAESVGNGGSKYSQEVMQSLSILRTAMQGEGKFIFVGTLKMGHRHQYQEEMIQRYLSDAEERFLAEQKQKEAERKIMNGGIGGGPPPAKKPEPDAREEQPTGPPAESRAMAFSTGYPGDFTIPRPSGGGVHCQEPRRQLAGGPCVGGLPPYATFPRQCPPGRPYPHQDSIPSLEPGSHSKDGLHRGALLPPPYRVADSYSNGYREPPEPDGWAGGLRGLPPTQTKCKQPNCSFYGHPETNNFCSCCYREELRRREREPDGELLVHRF
Experiment: log2 ratio of Biotin-Ahx-Ub-VS probe labelling (fragment/DMSO); higher = less target engagement (more negative = stronger competition), active = hit call of the paper (q ≤ 0.05, log2 ratio ≤ -1)
Settings: compound concentration: 200 uM; treatment time: 3 h
Reply briefly: the number, and no unit.

Record summary for CN(C)C(=O)c1ccc(CNC(=O)CCl)cc1 : reported log2 ratio of Biotin-Ahx-Ub-VS probe labelling = -0.351

Record summary for CN1C(=O)c2ccc(NC(=O)CCl)cc2C1=O : reported log2 ratio of Biotin-Ahx-Ub-VS probe labelling = -1.76

====

Biological target: FAM105A (UniProt Q9NUU6)
Sequence (whole entry): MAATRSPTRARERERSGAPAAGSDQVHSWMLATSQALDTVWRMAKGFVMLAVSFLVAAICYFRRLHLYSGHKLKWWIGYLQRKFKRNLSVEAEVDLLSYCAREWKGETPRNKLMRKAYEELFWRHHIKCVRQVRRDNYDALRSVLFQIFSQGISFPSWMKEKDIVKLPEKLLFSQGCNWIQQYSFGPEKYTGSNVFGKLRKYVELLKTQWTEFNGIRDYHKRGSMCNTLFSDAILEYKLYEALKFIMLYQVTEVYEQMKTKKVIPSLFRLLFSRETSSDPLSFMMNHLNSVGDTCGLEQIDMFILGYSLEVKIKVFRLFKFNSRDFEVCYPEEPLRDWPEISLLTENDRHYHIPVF
Assay: log2 ratio of Biotin-Ahx-Ub-VS probe labelling (fragment/DMSO); higher = less target engagement (more negative = stronger competition), active = hit call of the paper (q ≤ 0.05, log2 ratio ≤ -1)
Conditions: compound concentration: 200 uM; treatment time: 3 h
MEASURED METRIC: log2 ratio of Biotin-Ahx-Ub-VS probe labelling
Reply briefly: the number, and no unit.

{"columns": ["COMPOUND", "RECORDED VALUE"],
 "data": [
  ["Cc1cc(C(=O)NC2CCN(C(=O)CCl)CC2)no1", 0.133],
  ["Cc1cccc(C(CNC(=O)CCl)N2CCOCC2)c1.Cl (configuration not stated)", -0.778],
  ["CC(NC(=O)CCl)c1cc2n(n1)CCCC2.Cl (configuration not stated)", -0.0943],
  ["Cc1nc(-c2cccc(NC(=O)CCl)c2)cs1", 0.000667],
  ["Cc1cccc(NC(=O)[C@@H]2CCCN2C(=O)CCl)n1", 0.18]
]}

Record summary for CC(NC(=O)CCl)c1cnn(C2CC2)c1 (configuration not stated) : reported log2 ratio of Biotin-Ahx-Ub-VS probe labelling = -0.0989

Record summary for Cc1ccc(CN(CCO)C(=O)CCl)cc1 : reported log2 ratio of Biotin-Ahx-Ub-VS probe labelling = 0.0195

====

Biological target: USP48 (UniProt Q86UV5)
Sequence (Q86UV5 whole entry, the tested form may be a part): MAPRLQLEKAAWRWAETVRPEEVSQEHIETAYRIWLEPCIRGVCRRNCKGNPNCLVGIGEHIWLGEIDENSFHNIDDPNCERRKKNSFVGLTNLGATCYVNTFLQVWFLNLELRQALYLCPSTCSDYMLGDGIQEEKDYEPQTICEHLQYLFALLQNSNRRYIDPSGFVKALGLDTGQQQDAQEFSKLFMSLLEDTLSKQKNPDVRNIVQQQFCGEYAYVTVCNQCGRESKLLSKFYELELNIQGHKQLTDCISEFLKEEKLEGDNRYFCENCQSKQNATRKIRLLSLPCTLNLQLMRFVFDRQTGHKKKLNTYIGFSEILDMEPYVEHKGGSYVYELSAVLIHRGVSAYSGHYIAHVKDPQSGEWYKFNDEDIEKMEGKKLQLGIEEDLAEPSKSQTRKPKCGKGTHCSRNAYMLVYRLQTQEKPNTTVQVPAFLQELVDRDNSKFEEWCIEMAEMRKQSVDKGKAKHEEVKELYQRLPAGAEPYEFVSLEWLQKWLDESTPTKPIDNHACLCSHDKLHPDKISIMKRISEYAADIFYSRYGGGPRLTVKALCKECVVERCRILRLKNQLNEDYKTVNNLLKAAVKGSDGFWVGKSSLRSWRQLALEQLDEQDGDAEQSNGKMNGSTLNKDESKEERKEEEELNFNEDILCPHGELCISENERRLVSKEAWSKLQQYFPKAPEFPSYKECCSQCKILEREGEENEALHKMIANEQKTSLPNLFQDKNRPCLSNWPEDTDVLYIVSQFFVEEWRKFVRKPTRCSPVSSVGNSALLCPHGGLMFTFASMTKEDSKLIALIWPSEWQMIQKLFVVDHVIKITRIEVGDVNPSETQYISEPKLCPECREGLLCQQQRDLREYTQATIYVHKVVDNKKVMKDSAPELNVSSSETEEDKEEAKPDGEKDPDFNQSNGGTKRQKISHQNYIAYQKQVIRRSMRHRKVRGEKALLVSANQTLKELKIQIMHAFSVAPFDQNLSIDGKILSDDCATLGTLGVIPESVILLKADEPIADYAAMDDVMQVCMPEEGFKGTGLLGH
Test: log2 ratio of Biotin-Ahx-Ub-VS probe labelling (fragment/DMSO); higher = less target engagement (more negative = stronger competition), active = hit call of the paper (q ≤ 0.05, log2 ratio ≤ -1)
Conditions: compound concentration: 200 uM; treatment time: 3 h
Category scheme (log2 ratio of Biotin-Ahx-Ub-VS probe labelling): label 0: < -0.4; label 1: ≥ -0.4 and < -0.2; label 2: ≥ -0.2

Some solved entries appear below for comparison.
{"columns": ["COMPOUND", "ASSIGNED LABEL"],
 "data": [
  ["O=C(CCl)NCc1ccc(N2CCOCC2)nc1", "label 2"],
  ["O=C(CCl)N1c2ccccc2NC(=O)C12CCCC2", "label 0"],
  ["Cc1noc(C)c1CNC(=O)CCl", "label 0"],
  ["Cc1nc(CN2CCCN(C(=O)CCl)CC2)no1.Cl", "label 2"]
]}

Q) Bin this entry: C[C@H]1CN(C(=O)CCl)CCN1C(=O)c1cnn(C)c1.Cl
A) label 0

Q) Bin this entry: O=C(CCl)N1CCC(=C(F)CO)C1
A) label 2

Q) Bin this entry: Cc1nc(-c2cccc(NC(=O)CCl)c2)cs1
A) label 0

Q) Bin this entry: O=C(CCl)N1CCC(OCc2ccccc2F)CC1
A) label 2

Q) Bin this entry: CNC(=O)C1(NC(=O)CCl)CCCCC1
A) label 2

Q) Bin this entry: Cc1cccn2cc(CCNC(=O)CCl)nc12.Cl
A) label 2

Q) Bin this entry: Cl.O=C(CCl)N1CCn2ncc(O)c2C1
A) label 0

Q) Bin this entry: Cl.Cn1c(CNC(=O)CCl)nc2cccnc21
A) label 2

Q) Bin this entry: CC(NC(=O)CCl)c1cccc(Cl)c1 (centres undefined)
A) label 1

Q) Bin this entry: CC(NC(=O)CCl)c1cnn(C2CC2)c1 (centres undefined)
A) label 2

Q) Bin this entry: Cc1ccc2nnc(CNC(=O)CCl)n2c1
A) label 2

Q) Bin this entry: CC(NC(=O)CCl)c1cccc2ccccc12 (centres undefined)
A) label 1

Q) Bin this entry: O=C(CCl)Nc1nc(-c2cccs2)cs1
A) label 0

Q) Bin this entry: O=C(CCl)Nc1cccc(C(=O)N2CCSCC2)c1
A) label 2

====

Target: BAP1 (UniProt Q92560)
Sequence (whole entry): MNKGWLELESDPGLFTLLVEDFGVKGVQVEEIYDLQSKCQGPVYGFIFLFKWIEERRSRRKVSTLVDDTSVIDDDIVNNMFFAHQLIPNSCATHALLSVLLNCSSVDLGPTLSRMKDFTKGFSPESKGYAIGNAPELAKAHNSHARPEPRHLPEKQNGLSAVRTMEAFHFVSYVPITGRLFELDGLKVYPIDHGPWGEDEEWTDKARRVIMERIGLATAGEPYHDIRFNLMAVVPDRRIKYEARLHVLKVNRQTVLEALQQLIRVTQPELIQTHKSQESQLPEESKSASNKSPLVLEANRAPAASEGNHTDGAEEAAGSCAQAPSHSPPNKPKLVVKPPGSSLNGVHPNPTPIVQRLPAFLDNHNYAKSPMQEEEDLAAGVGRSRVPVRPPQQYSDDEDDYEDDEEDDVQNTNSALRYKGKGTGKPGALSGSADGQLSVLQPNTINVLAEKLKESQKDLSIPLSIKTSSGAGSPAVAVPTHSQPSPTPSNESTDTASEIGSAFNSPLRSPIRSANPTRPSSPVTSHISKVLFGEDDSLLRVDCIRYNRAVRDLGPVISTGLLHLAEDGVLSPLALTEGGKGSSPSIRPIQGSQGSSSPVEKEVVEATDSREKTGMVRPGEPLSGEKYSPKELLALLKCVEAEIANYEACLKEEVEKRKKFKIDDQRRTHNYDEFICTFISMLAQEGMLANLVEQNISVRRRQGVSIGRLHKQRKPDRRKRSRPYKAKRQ
Experiment: log2 ratio of Biotin-Ahx-Ub-VS probe labelling (fragment/DMSO); higher = less target engagement (more negative = stronger competition), active = hit call of the paper (q ≤ 0.05, log2 ratio ≤ -1)
Settings: compound concentration: 200 uM; treatment time: 3 h
Given measured log2 ratio of Biotin-Ahx-Ub-VS probe labelling, output y if it is greater than or equal to -1 and n if not.

Some solved entries appear below for comparison.
{"columns": ["COMPOUND", "ASSIGNED LABEL"],
 "data": [
  ["CC(=O)Nc1ccc(NC(=O)CCl)cc1", "n"],
  ["Cc1noc(C)c1CNC(=O)CCl", "n"],
  ["Cc1nc(CC2CCN(C(=O)CCl)CC2)no1", "n"],
  ["O=C(CCl)NC1(c2ccc3c(c2)OCCO3)CCCC1", "n"],
  ["C/C(=C\\CNC(=O)CCl)c1cnn(C)c1.Cl", "n"],
  ["Cc1cccn2cc(CCNC(=O)CCl)nc12.Cl", "y"]
]}

Q) # bool: log2 ratio of Biotin-Ahx-Ub-VS probe labelling of CCC(NC(=O)CCl)c1ccc(Cl)cc1 (configuration not stated) >= -1
A) n

Q) # bool: log2 ratio of Biotin-Ahx-Ub-VS probe labelling of CC(NC(=O)CCl)c1cccc2ccccc12 (configuration not stated) >= -1
A) n

Q) # bool: log2 ratio of Biotin-Ahx-Ub-VS probe labelling of Cc1ccc(N(CCC#N)C(=O)CCl)cc1C >= -1
A) y

Q) # bool: log2 ratio of Biotin-Ahx-Ub-VS probe labelling of O=C(CCl)N1CCc2ccccc2C(O)C1 (configuration not stated) >= -1
A) y

Q) # bool: log2 ratio of Biotin-Ahx-Ub-VS probe labelling of CN(C)C(=O)c1ccc(CNC(=O)CCl)cc1 >= -1
A) n

Q) # bool: log2 ratio of Biotin-Ahx-Ub-VS probe labelling of O=C(CCl)NCc1ccc(N2CCOCC2)nc1 >= -1
A) n
